- system tested: ZmCKX1 (Zea mays)
- Construct: made in house; host or cells: Yarrowia lipolytica
- assay method text: ZmCKX1 inhibition, PMS/MTT assay
- Type: biochemical, maize
- condition: 10 µM iP as substrate, pH 7.4, 30 min at 37 °C; average of at least two measurements; read-out: IC50 (µM) ZmCKX1
- Method: The IC50 (concentration of a substance that causes 50% inhibition of the enzyme activity) was measured by PMS/MTT assay [phenazine methosulphate/3-(4,5-dimethylthiazol-2-yl)-2,5-diphenyltetrazolium bromide]. The assay was performed in 96-well microtiter plates. Each well contained a reaction mixture with a final concentration of: 0.1 M KH2PO4, pH 7.4, 1 mM MTT, 0.2 mM PMS, tested substance in a concentration range of 0.1 nM - 1 µM and 10 µM N^6-isopentenyladenine (iP) as a substrate. […]
// class assignment uses IC50 with these ranges: low end (below 0.02 µM), middle (0.02 µM to below 0.06 µM), high end (0.06 µM or more)

>  <compound>
NC(=O)c1ccccc1NC(=O)Nc1cc(F)cc(F)c1 [compound 5]

>  <label>
high end

$$$$
>  <compound>
COc1cccc(Nc2nc(F)nc3[nH]cnc23)c1 [F-INCYDE, reference compound]

>  <label>
high end

$$$$
>  <compound>
CCCNC(=O)c1ccccc1NC(=O)Nc1cc(Cl)cc(Cl)c1 [compound 41]

>  <label>
middle

$$$$
>  <compound>
NNC(=O)c1ccccc1NC(=O)Nc1cc(Cl)cc(Cl)c1 [compound 44]

>  <label>
high end

$$$$
>  <compound>
COc1cccc(NC(=O)Nc2ccccc2C(N)=O)c1 [compound 3]

>  <label>
high end

$$$$
>  <compound>
NC(=O)c1ccccc1NC(=O)Nc1cc(Cl)cc(Cl)c1 [compound 6]

>  <label>
middle

$$$$
>  <compound>
CNC(=O)c1ccc(Cl)cc1NC(=O)Nc1cc(Cl)cc(Cl)c1 [compound 31]

>  <label>
low end

$$$$
>  <compound>
Cc1cc(Cl)cc(NC(=O)Nc2ccccc2C(N)=O)c1 [compound 10]

>  <label>
high end

$$$$
>  <compound>
COc1ccc(C(=O)NCCO)c(NC(=O)Nc2cccc(F)c2)c1 [compound 49]

>  <label>
middle

$$$$
>  <compound>
NC(=O)c1ccc(F)cc1NC(=O)Nc1cc(Cl)cc(Cl)c1 [compound 13]

>  <label>
low end

$$$$
>  <compound>
O=C(Nc1cccc(Cl)c1)Nc1ccccc1C(=O)NCCCO [compound 51]

>  <label>
high end

$$$$
>  <compound>
COc1ccc(C(N)=O)c(NC(=O)Nc2cc(Cl)cc(Cl)c2)c1 [compound 24]

>  <label>
low end

$$$$
>  <compound>
COc1ccc(C(=O)NCCO)c(NC(=O)Nc2cc(Cl)cc(Cl)c2)c1 [compound 50]

>  <label>
low end

$$$$
>  <compound>
O=C(Nc1cc(Cl)cc(Cl)c1)Nc1ccccc1C(=O)NCCO [compound 47]

>  <label>
middle

$$$$
>  <compound>
CCCNC(=O)c1ccccc1NC(=O)Nc1cc(F)cc(F)c1 [compound 40]

>  <label>
high end

$$$$
>  <compound>
COc1ccc(C(N)=O)c(NC(=O)Nc2cccc(Cl)c2)c1 [compound 22]

>  <label>
middle

$$$$
>  <compound>
CNC(=O)c1ccc(F)cc1NC(=O)Nc1cc(Cl)cc(Cl)c1 [compound 30]

>  <label>
middle

$$$$
>  <compound>
NC(=O)c1ccccc1NC(=O)Nc1cccc(OC(F)(F)F)c1 [compound 4]

>  <label>
high end

$$$$
>  <compound>
COc1ccc(C(=O)NCCN)c(NC(=O)Nc2cc(Cl)cc(Cl)c2)c1 [compound 56]

>  <label>
low end

$$$$
>  <compound>
NCCNC(=O)c1ccc(OC(F)(F)F)cc1NC(=O)Nc1cc(Cl)cc(Cl)c1 [compound 57]

>  <label>
low end

$$$$
>  <compound>
CCNC(=O)c1ccc(OC(F)(F)F)cc1NC(=O)Nc1cc(F)cc(Cl)c1 [compound 38]

>  <label>
low end

$$$$
>  <compound>
NC(=O)c1ccccc1NC(=O)Nc1cccc(F)c1 [compound 1, 2-[3-(3-fluorophenyl)ureido]benzamide]

>  <label>
high end

$$$$
>  <compound>
O=C(Nc1ccccc1)Nc1cc(Cl)cc(Cl)c1 [3,5DCl-Ph-U, 1-(3,5-dichlorophenyl)-3-phenylurea, reference compound]

>  <label>
high end

$$$$
>  <compound>
COc1ccc(C(=O)NN)c(NC(=O)Nc2cc(Cl)cc(Cl)c2)c1 [compound 46]

>  <label>
low end

$$$$
>  <compound>
CCNC(=O)c1ccc(OC)cc1NC(=O)Nc1cc(Cl)cc(Cl)c1 [compound 37]

>  <label>
low end

$$$$
>  <compound>
O=C(Nc1ccccc1)Nc1cc(Cl)nc(Cl)c1 [DCPPU, reference compound]

>  <label>
high end

$$$$
>  <compound>
NC(=O)c1ccc(Cl)cc1NC(=O)Nc1cccc(Cl)c1 [compound 15]

>  <label>
middle

$$$$
>  <compound>
NC(=O)c1ccc(OC(F)(F)F)cc1NC(=O)Nc1cccc(Cl)c1 [compound 26]

>  <label>
low end

$$$$
>  <compound>
CCCNC(=O)c1ccccc1NC(=O)Nc1cccc(F)c1 [compound 39]

>  <label>
high end

$$$$
>  <compound>
CCNC(=O)c1ccccc1NC(=O)Nc1cc(Cl)cc(Cl)c1 [compound 34]

>  <label>
middle

$$$$
>  <compound>
CNC(=O)c1ccccc1NC(=O)Nc1cc(Cl)cc(Cl)c1 [compound 29]

>  <label>
middle

$$$$
>  <compound>
COc1ccc(C(N)=O)c(NC(=O)Nc2cccc(F)c2)c1 [compound 21]

>  <label>
middle

$$$$
>  <compound>
CCCNC(=O)c1ccc(OC)cc1NC(=O)Nc1cc(Cl)cc(Cl)c1 [compound 43]

>  <label>
low end

$$$$
>  <compound>
NC(=O)c1ccc(Cl)cc1NC(=O)Nc1cc(Cl)cc(Cl)c1 [compound 16]

>  <label>
low end

$$$$
>  <compound>
CNC(=O)c1ccc(OC)cc1NC(=O)Nc1cccc(Cl)c1 [compound 33]

>  <label>
low end

$$$$
>  <compound>
NC(=O)c1ccccc1NC(=O)Nc1cc(F)cc(Cl)c1 [compound 8]

>  <label>
high end

$$$$
>  <compound>
CCNC(=O)c1ccc(OC)cc1NC(=O)Nc1cccc(Cl)c1 [compound 36]

>  <label>
middle

$$$$
>  <compound>
COc1cc(Cl)cc(NC(=O)Nc2cc(F)ccc2C(N)=O)c1 [compound 14]

>  <label>
middle

$$$$

* * *

- system tested: ZmCKX1 (Zea mays, UniProt Q9T0N8)
- Construct: made in house; host or cells: Yarrowia lipolytica
- Sequence (Q9T0N8 19-534): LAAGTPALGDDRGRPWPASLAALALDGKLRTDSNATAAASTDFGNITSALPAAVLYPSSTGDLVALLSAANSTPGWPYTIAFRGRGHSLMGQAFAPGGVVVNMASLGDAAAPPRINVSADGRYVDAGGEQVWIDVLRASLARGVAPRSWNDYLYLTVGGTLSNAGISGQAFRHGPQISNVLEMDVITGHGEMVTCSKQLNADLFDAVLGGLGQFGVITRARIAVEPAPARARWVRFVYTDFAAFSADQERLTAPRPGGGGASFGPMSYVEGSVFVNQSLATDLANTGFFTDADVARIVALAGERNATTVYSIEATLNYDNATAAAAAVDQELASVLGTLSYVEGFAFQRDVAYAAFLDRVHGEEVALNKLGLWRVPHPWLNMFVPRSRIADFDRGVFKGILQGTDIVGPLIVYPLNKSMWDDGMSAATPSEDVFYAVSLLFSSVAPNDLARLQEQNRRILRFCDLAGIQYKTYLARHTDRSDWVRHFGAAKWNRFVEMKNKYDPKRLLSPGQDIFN
- assay method text: ZmCKX1 inhibition, PMS/MTT assay
- Assay type: biochemical, maize
readout type: log10(IC50) (log10 of the value in nM)

>  <compound>
COc1cc(Cl)cc(NC(=O)Nc2cc(Br)ccc2C(N)=O)c1

>  <assay value>
1.53

$$$$
>  <compound>
NC(=O)c1ccccc1NC(=O)Nc1cc(Cl)cc(OC(F)(F)F)c1

>  <assay value>
2.08

$$$$
>  <compound>
NC(=O)c1ccccc1NC(=O)Nc1cccc(Br)c1 [compound 2, 2-[3-(3-bromophenyl)ureido]benzamide]

>  <assay value>
2.53

$$$$
>  <compound>
NC(=O)c1ccc(OC(F)(F)F)cc1NC(=O)Nc1cccc(Br)c1

>  <assay value>
0.85

$$$$
>  <compound>
NC(=O)c1ccc(OC(F)(F)F)cc1NC(=O)Nc1cc(Cl)cc(Cl)c1

>  <assay value>
0.00

$$$$
>  <compound>
COc1ccc(C(N)=O)c(NC(=O)Nc2cccc(Br)c2)c1

>  <assay value>
1.52

$$$$
>  <compound>
COc1ccc(C(N)=O)c(NC(=O)Nc2cc(Cl)cc(Br)c2)c1

>  <assay value>
0.00

$$$$

* * *

- system tested: ZmCKX1 (Zea mays, UniProt Q9T0N8)
- Construct: made in house; host or cells: Yarrowia lipolytica
- assay method text: ZmCKX1 inhibition, PMS/MTT assay
- Type: biochemical, maize
- condition: read-out: IC50 (µM) ZmCKX1; 10 µM iP as substrate, pH 7.4, 30 min at 37 °C; average of at least two measurements
Hi! Just check whether IC50 is below 0.01 µM. Below gives fulfilled, equal or above gives not fulfilled.

>  <compound>
CCCNC(=O)c1ccc(Cl)cc1NC(=O)Nc1cc(F)cc(F)c1 [compound 42]

>  <label>
not fulfilled

$$$$
>  <compound>
NC(=O)c1ccc(Br)cc1NC(=O)Nc1cc(Cl)cc(Cl)c1 [compound 19]

>  <label>
fulfilled

$$$$
>  <compound>
NCCNC(=O)c1ccc(Br)cc1NC(=O)Nc1cccc(Cl)c1 [compound 54]

>  <label>
not fulfilled

$$$$
>  <compound>
O=C(Nc1cccc(Cl)c1)Nc1cc(Br)ccc1C(=O)NCCCO [compound 52]

>  <label>
not fulfilled

$$$$
>  <compound>
NC(=O)c1ccc(Br)cc1NC(=O)Nc1cccc(Cl)c1 [compound 18]

>  <label>
not fulfilled

$$$$
>  <compound>
NC(=O)c1ccc(Cl)cc1NC(=O)Nc1cc(Cl)cc(Br)c1 [compound 17]

>  <label>
fulfilled

$$$$
